- system.under.test: E. coli CsgA (Escherichia coli, UniProt P28307)
- Construct: made in house; host or cells: E. coli NEB 3016 slyD::kan, pET11d
- Sequence (P28307 23-151): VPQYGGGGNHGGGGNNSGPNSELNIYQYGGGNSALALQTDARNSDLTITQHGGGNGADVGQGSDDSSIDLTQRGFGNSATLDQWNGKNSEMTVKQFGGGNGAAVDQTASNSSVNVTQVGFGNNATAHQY
- assay.summary: In vitro ThioflavinT assay of CsgA aggregation (CsgA ThT Assay)
- Format: biochemical
- experimental.context: read-out: CsgA ThT Assay (2 μM CsgA) % Control Bmax 100 μM, mean Bmax as percentage of DMSO control; CsgA 2 μM, white plates; compound 100 μM
assay.readout: remaining activity at 100 µM (%)
The reply should contain only the number, in %.

Here's what some known entries look like.
molecule | remaining activity at 100 µM, %
CCCN1CC(C(=O)O)n2c(c(-c3cccc(C(F)(F)F)c3)c(Cc3cccc4ccccc34)c(C3CC3)c2=O)S1(=O)=O (centres unmarked) [Compound 132] | 122
CC(C)CN1CC(C(=O)O)n2c1c(-c1cccc(C(F)(F)F)c1)c(Cc1cccc3ccccc13)c(Cl)c2=O (centres unmarked) [Compound 164] | 42
O=C(O)C1CN(C2CCCCC2)S(=O)(=O)c2c(-c3cccc(C(F)(F)F)c3)c(Cc3cccc4ccccc34)c(NC3CCCC3)c(=O)n21 (centres unmarked) [Compound 131] | 94
CCCN1CC(C(=O)O)n2c(c(-c3cccc(C(F)(F)F)c3)c(Cc3cccc4ccccc34)c(Cl)c2=O)S1(=O)=O (centres unmarked) [Compound 142] | 121

Proceeding to the next molecule to report its remaining activity at 100 µM.
I'm curious: which remaining activity at 100 µM was measured for O=C(O)C1CN(CC2CCCC2)c2c(-c3cccc(C(F)(F)F)c3)c(Cc3cccc4ccccc34)c(Cl)c(=O)n21 (centres unmarked) [Compound 167] tested on E. coli CsgA (Escherichia coli, UniProt P28307)?
49

====

- system.under.test: E. coli CsgA (Escherichia coli, UniProt P28307)
- Construct: made in house; host or cells: E. coli NEB 3016 slyD::kan, pET11d
- assay.summary: In vitro ThioflavinT assay of CsgA aggregation (CsgA ThT Assay)
- Type: biochemical
- experimental.context: read-out: CsgA ThT Assay (2 μM CsgA) % Control Bmax 25 μM, activity range, class symbol; CsgA 2 μM, white plates; compound 25 μM
assay.readout: remaining activity at 25 µM

Here's what some known entries look like.
molecule | remaining activity at 25 µM
O=C(O)C1CN(Cc2ccncc2)c2c(-c3cccc(C(F)(F)F)c3)c(Cc3cccc4ccccc34)c(Cl)c(=O)n21 (stereo not drawn) | > 60%
CN1CC(C(=O)O)n2c(c(-c3cccc(C(F)(F)F)c3)c(Cc3cccc4ccccc34)c(C(=O)N3CCOCC3)c2=O)S1(=O)=O (stereo not drawn) | > 60%

Proceeding to the next molecule to report its remaining activity at 25 µM.
State the recorded remaining activity at 25 µM for this entry: N#Cc1cccc(CN2CC(C(=O)O)n3c2c(-c2cccc(C(F)(F)F)c2)c(Cc2cccc4ccccc24)c(Cl)c3=O)c1 (stereo not drawn)
> 60%

====

- system.under.test: E. coli CsgA (Escherichia coli, UniProt P28307)
- Construct: made in house; host or cells: E. coli NEB 3016 slyD::kan, pET11d
- assay.summary: In vitro ThioflavinT assay of CsgA aggregation (CsgA ThT Assay)
- Assay type: biochemical
- experimental.context: read-out: CsgA ThT Assay (2 μM CsgA) % Control Bmax 25 μM, mean Bmax as percentage of DMSO control; CsgA 2 μM, white plates; compound 25 μM
One threshold, 80%, splits the recorded remaining activity at 25 µM values: lower ones are criterion met, equal or higher ones are criterion not met.

compound | answer.label
CC(C)(C)c1cccc(Cc2c(-c3cccc(C(F)(F)F)c3)c3n(c(=O)c2Cl)C(C(=O)O)CN3Cc2ccccc2)c1 (stereo not shown) [Compound 215] | criterion not met
CC(C)N1CC(C(=O)O)n2c(c(-c3cccc(C(F)(F)F)c3)c(Cc3cccc4ccccc34)c(C(N)=O)c2=O)S1(=O)=O (stereo not shown) [Compound 175] | criterion met
CCCN1CC(C(=O)O)n2c(c(-c3cccc(C(F)(F)F)c3)c(Cc3cccc4ccccc34)c(OCc3ccccc3)c2=O)S1(=O)=O (stereo not shown) [Compound 146] | criterion not met
CCCN1CC(C(=O)O)n2c(c(-c3cccc(C(F)(F)F)c3)c(Cc3cccc4ccccc34)c(NC(=O)C(C)C)c2=O)S1(=O)=O (stereo not shown) [Compound 152] | criterion not met
CC(C)CN1CC(C(=O)O)n2c(c(-c3cccc(C(F)(F)F)c3)c(Cc3cccc4ccccc34)c(NC3CCCC3)c2=O)S1(=O)=O (stereo not shown) [Compound 145] | criterion met

Take the compound O=C(O)C1CN(Cc2ccccc2)c2c(-c3cccc(C(F)(F)F)c3)c(Cc3cccc4ncccc34)c(Cl)c(=O)n21 (stereo not shown) [Compound 211] and say whether its remaining activity at 25 µM is less than 80%.
criterion not met

Take the compound CN1CC(C(=O)O)n2c(c(-c3cccc(C(F)(F)F)c3)c(Cc3cccc4ccccc34)c(C(=O)NC(C)(C)C)c2=O)S1(=O)=O (stereo not shown) [Compound 158] and say whether its remaining activity at 25 µM is less than 80%.
criterion met

Take the compound O=C(O)C1CN(Cc2ccccc2)c2c(-c3cccc(C(F)(F)F)c3)c(Cc3cccc4ccncc34)c(Cl)c(=O)n21 (stereo not shown) [Compound 205] and say whether its remaining activity at 25 µM is less than 80%.
criterion met

Take the compound CCCN1CC(C(=O)O)n2c(c(-c3cccc(C(F)(F)F)c3)c(Cc3cccc4ccccc34)c(CC(C)C)c2=O)S1(=O)=O (stereo not shown) [Compound 139] and say whether its remaining activity at 25 µM is less than 80%.
criterion met

Take the compound CC(C)(C)c1ccc(Cc2c(-c3cccc(C(F)(F)F)c3)c3n(c(=O)c2Cl)C(C(=O)O)CN3Cc2ccccc2)cc1 (stereo not shown) [Compound 216] and say whether its remaining activity at 25 µM is less than 80%.
criterion not met

Take the compound CN1CC(C(=O)O)n2c(c(-c3cccc(C(F)(F)F)c3)c(Cc3cccc4ccccc34)c(C(=O)N3CCCC3)c2=O)S1(=O)=O (stereo not shown) [Compound 186] and say whether its remaining activity at 25 µM is less than 80%.
criterion not met

Take the compound O=C(O)C1CN(Cc2cccnc2)c2c(-c3cccc(C(F)(F)F)c3)c(Cc3cccc4ccccc34)c(Cl)c(=O)n21 (stereo not shown) [Compound 169] and say whether its remaining activity at 25 µM is less than 80%.
criterion met

====

- system.under.test: E. coli CsgA (Escherichia coli, UniProt P28307)
- Construct: made in house; host or cells: E. coli NEB 3016 slyD::kan, pET11d
- assay.summary: In vitro ThioflavinT assay of CsgA aggregation (CsgA ThT Assay)
- Assay type: biochemical
- experimental.context: read-out: CsgA ThT Assay (2 μM CsgA) % Control Bmax 25 μM, mean Bmax as percentage of DMSO control; CsgA 2 μM, white plates; compound 25 μM
assay.readout: remaining activity at 25 µM (%)
The reply should contain only the number, in %.

Here's what some known entries look like.
compound | unit.annotation | observed.value
NC(=O)c1c(Cc2cccc3ccccc23)c(-c2cccc(C(F)(F)F)c2)c2n(c1=O)C(C(=O)O)CN2Cc1ccccc1 (stereo not shown) | % | 62
CC(C)CN1CC(C(=O)O)n2c1c(-c1cccc(C(F)(F)F)c1)c(Cc1cccc3ccccc13)c(Cl)c2=O (stereo not shown) | % | 52
O=C(O)C1CN(Cc2ccccc2)c2c(-c3cccc(C(F)(F)F)c3)c(Cc3ccccc3)c(Cl)c(=O)n21 (stereo not shown) | % | 90
O=C(O)C1CNS(=O)(=O)c2c(-c3cccc(C(F)(F)F)c3)c(Cc3cccc4ccccc34)c(NC3CCCC3)c(=O)n21 (stereo not shown) | % | 66
O=C(O)C1CN(Cc2cccc3ccccc23)c2c(-c3cccc(C(F)(F)F)c3)c(Cc3cccc4ccccc34)c(Cl)c(=O)n21 (stereo not shown) | % | 52

I'm curious: which remaining activity at 25 µM was measured for O=C(O)C1CNc2c(-c3cccc(C(F)(F)F)c3)c(Cc3cccc4ccccc34)c(Br)c(=O)n21 (stereo not shown) tested on E. coli CsgA (Escherichia coli, UniProt P28307)?
71

I'm curious: which remaining activity at 25 µM was measured for CCCNC(=O)c1c(Cc2cccc3ccccc23)c(-c2cccc(C(F)(F)F)c2)c2n(c1=O)C(C(=O)O)CN(C)S2(=O)=O (stereo not shown) tested on E. coli CsgA (Escherichia coli, UniProt P28307)?
92

====

- system.under.test: E. coli CsgA (Escherichia coli, UniProt P28307)
- Construct: made in house; host or cells: E. coli NEB 3016 slyD::kan, pET11d
- assay.summary: In vitro ThioflavinT assay of CsgA aggregation (CsgA ThT Assay)
- Format: biochemical
- experimental.context: read-out: CsgA ThT Assay (10 μM CsgA) % Control AUC at 1005 minutes, 25 μM, mean AUC as % of DMSO control; CsgA 10 μM, black plates; compound 25 μM; 1005 minutes
- Procedure: In vitro ThioflavinT assay to determine effects of compounds on CsgA aggregation. […] Protein concentration was assessed by the NanoDrop technique (Thermo Scientific), as is familiar to one skilled in the art. […] During the assay, plates were shaken initially for 5 seconds and subsequently for 3 seconds prior to fluorescent readings. Readings were performed every 15 minutes for up to 1005 minutes. The effect of compounds on CsgA aggregation in the assay was determined with data from 0-17 hours. […]
One threshold, 30%, splits the recorded remaining activity at 25 µM values: lower ones are Criterion met, equal or higher ones are Criterion not met.

Take the compound CC1(C)Sc2c(-c3cccc(C(F)(F)F)c3)c(Cc3cccc4ccccc34)nc(=O)n2C1C(=O)O (stereo not drawn) [Compound 059] and say whether its remaining activity at 25 µM is less than 30%.
Criterion not met

Take the compound CC(C)N1CC(C(=O)O)n2c(c(-c3cccc(C(F)(F)F)c3)c(Cc3cccc4ccccc34)c(NC3CCCC3)c2=O)S1(=O)=O (stereo not drawn) [Compound 123] and say whether its remaining activity at 25 µM is less than 30%.
Criterion met

Take the compound CCCN1CC(C(=O)O)n2c(c(-c3cccc(C(F)(F)F)c3)c(Cc3cccc4ccccc34)c(N)c2=O)S1(=O)=O (stereo not drawn) [Compound 089] and say whether its remaining activity at 25 µM is less than 30%.
Criterion not met

Take the compound Cn1c(=O)c2c(nc(CCCCCN3CC(C(=O)O)n4c(c(-c5cccc(C(F)(F)F)c5)c(Cc5cccc6ccccc56)cc4=O)S3(=O)=O)n2C)n(C)c1=O (stereo not drawn) [Compound 045] and say whether its remaining activity at 25 µM is less than 30%.
Criterion not met

Take the compound CNC(=O)C1CN(C)S(=O)(=O)c2c(-c3cccc(C(F)(F)F)c3)c(Cc3cccc4ccccc34)cc(=O)n21 (stereo not drawn) [Compound 031] and say whether its remaining activity at 25 µM is less than 30%.
Criterion not met
